# MEASURED ON: human recombinant HDAC6 (Homo sapiens, UniProt Q9UBN7)
# Sequence (Q9UBN7 1-1215): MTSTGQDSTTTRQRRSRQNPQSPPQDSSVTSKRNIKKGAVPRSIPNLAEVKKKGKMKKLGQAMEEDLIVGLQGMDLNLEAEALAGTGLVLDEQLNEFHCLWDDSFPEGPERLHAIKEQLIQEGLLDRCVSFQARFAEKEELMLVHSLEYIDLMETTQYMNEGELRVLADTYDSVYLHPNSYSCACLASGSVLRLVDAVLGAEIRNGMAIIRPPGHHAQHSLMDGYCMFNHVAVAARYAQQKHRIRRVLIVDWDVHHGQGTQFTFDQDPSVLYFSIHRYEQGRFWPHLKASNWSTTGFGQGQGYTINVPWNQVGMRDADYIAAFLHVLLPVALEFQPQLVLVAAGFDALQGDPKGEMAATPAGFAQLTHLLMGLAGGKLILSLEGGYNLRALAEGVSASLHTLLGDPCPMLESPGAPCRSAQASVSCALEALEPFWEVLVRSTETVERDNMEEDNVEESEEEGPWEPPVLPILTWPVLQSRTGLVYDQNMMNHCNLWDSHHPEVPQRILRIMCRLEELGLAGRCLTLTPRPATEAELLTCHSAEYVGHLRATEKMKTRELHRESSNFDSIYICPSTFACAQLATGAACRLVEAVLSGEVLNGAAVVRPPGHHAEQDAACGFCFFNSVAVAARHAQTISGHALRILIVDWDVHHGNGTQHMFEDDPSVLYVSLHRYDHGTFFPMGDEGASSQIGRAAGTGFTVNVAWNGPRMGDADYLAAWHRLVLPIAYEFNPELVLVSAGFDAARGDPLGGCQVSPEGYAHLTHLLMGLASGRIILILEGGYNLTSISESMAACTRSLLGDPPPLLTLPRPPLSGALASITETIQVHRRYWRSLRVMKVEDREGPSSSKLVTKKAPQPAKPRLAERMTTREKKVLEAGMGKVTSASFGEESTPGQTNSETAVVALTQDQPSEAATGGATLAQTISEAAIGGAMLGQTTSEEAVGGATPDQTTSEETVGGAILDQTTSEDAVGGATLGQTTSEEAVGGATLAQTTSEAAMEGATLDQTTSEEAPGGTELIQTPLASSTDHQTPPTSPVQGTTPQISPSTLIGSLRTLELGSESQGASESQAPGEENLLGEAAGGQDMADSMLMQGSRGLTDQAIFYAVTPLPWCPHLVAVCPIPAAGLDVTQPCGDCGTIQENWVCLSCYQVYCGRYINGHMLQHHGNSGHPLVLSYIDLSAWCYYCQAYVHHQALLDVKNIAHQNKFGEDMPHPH
# EXPERIMENT: HDAC enzyme activity inhibition assay (HDAC Fluorimetric Drug Discovery Kit), HDAC6
# APPLIED CONDITIONS: human recombinant HDAC6, same protocol as HDAC1
# Procedure: For the HDAC1 enzyme activity test, human recombinant HDAC1 (BML-SE456) was used as an enzyme source and Fluor de Lys©-SIRT1 (BNL-K1177) was used as a substrate. […] Next, Fluor de Lys© Developer II (BML-K1176) was added and reacted for 30 minutes to complete the reaction, and then the fluorescence values (Ex 360, Em 460) were measured using a multi-plate reader (Flexstation 3, Molecular Device). […]
pIC50: −log10 of the molar value.
Below, each of the compounds is paired with its reported pIC50 value.

>  <COMPOUND STRING>
CC(C)CN1CC(N2CC(F)(C(=O)N(Cc3ccc(-c4nnc(C(F)F)o4)cn3)c3cccc(F)c3)C2)C1

>  <pIC50>
7.45

$$$$
>  <COMPOUND STRING>
CCCC(=O)N1CC(F)(C(=O)N(Cc2ccc(-c3nnc(C(F)F)o3)cn2)c2ccccc2)C1

>  <pIC50>
7.48

$$$$
>  <COMPOUND STRING>
O=C(N(Cc1ccc(-c2nnc(C(F)F)o2)cn1)c1ccccc1)C1(F)CN(C2CCSCC2)C1

>  <pIC50>
7.66

$$$$
>  <COMPOUND STRING>
O=C(N(Cc1ccc(-c2nnc(C(F)F)o2)cn1)c1cccc(F)c1)C1(F)CN(C2COC2)C1

>  <pIC50>
7.14

$$$$
>  <COMPOUND STRING>
CC(C)N1CCC(N2CC(F)(C(=O)N(Cc3ccc(-c4nnc(C(F)F)o4)cn3)c3ccccc3)C2)CC1

>  <pIC50>
7.61

$$$$
>  <COMPOUND STRING>
CCN1CCC(N2CC(F)(C(=O)N(Cc3ccc(-c4nnc(C(F)F)o4)cn3)c3ccccc3)C2)CC1

>  <pIC50>
7.27

$$$$
>  <COMPOUND STRING>
CCCC(=O)N1CC(F)(C(=O)N(Cc2ccc(-c3nnc(C(F)F)o3)cn2)c2cccc(F)c2)C1

>  <pIC50>
7.62

$$$$
>  <COMPOUND STRING>
CC(C)C(=O)N1CC(F)(C(=O)N(Cc2ccc(-c3nnc(C(F)F)o3)cc2F)c2ccccc2)C1

>  <pIC50>
6.95

$$$$
>  <COMPOUND STRING>
O=C(C1CCCC1)N1CC(F)(C(=O)N(Cc2ccc(-c3nnc(C(F)F)o3)cn2)c2ccccc2)C1

>  <pIC50>
7.47

$$$$
>  <COMPOUND STRING>
O=C(N1CC(F)(C(=O)N(Cc2ccc(-c3nnc(C(F)F)o3)cc2F)c2ccccc2)C1)C(F)(F)F

>  <pIC50>
6.81

$$$$
>  <COMPOUND STRING>
CC(C)N1CCC(F)(C(=O)N(Cc2ccc(-c3nnc(C(F)F)o3)cc2F)c2ccccc2)CC1

>  <pIC50>
6.66

$$$$
>  <COMPOUND STRING>
CN1CC(F)(C(=O)N(Cc2ccc(-c3nnc(C(F)F)o3)cn2)c2ccccc2)C1

>  <pIC50>
7.33

$$$$
>  <COMPOUND STRING>
CCCCN1CC(F)(C(=O)N(Cc2ccc(-c3nnc(C(F)F)o3)cn2)c2ccccc2)C1

>  <pIC50>
7.43

$$$$
>  <COMPOUND STRING>
CC(C)N1CC(F)(C(=O)N(Cc2ccc(-c3nnc(C(F)F)o3)cc2F)c2ccccc2)C1

>  <pIC50>
7.04

$$$$
>  <COMPOUND STRING>
CC(C)N1CCC(F)(C(=O)N(Cc2ccc(-c3nnc(C(F)F)o3)cn2)c2ccccc2)CC1

>  <pIC50>
7.00

$$$$
>  <COMPOUND STRING>
CCN1CC(F)(C(=O)N(Cc2ccc(-c3nnc(C(F)F)o3)cn2)c2cccc(F)c2)C1

>  <pIC50>
7.65

$$$$
>  <COMPOUND STRING>
CC(C)CN1CC(N2CCC(F)(C(=O)N(Cc3ccc(-c4nnc(C(F)F)o4)cn3)c3cccc(F)c3)CC2)C1

>  <pIC50>
7.72

$$$$
>  <COMPOUND STRING>
O=C(N(Cc1ccc(-c2nnc(C(F)F)o2)cn1)c1ccccc1)C1(F)CN(C2CCCCC2)C1

>  <pIC50>
7.20

$$$$
>  <COMPOUND STRING>
CN1CC(N2CC(F)(C(=O)N(Cc3ccc(-c4nnc(C(F)F)o4)cn3)c3cccc(F)c3)C2)C1

>  <pIC50>
7.30

$$$$
>  <COMPOUND STRING>
COCCC(=O)N1CC(F)(C(=O)N(Cc2ccc(-c3nnc(C(F)F)o3)cn2)c2ccccc2)C1

>  <pIC50>
7.27

$$$$
>  <COMPOUND STRING>
O=C(N(Cc1ccc(-c2nnc(C(F)F)o2)cn1)c1cccc(F)c1)C1(F)CN(C2CCN(C3CCC3)CC2)C1

>  <pIC50>
7.58

$$$$
>  <COMPOUND STRING>
CCC(=O)N1CCC(F)(C(=O)N(Cc2ccc(-c3nnc(C(F)F)o3)cc2F)c2ccccc2)CC1

>  <pIC50>
6.68

$$$$
>  <COMPOUND STRING>
CC(C)N1CC(N2CC(F)(C(=O)N(Cc3ccc(-c4nnc(C(F)F)o4)cn3)c3cccc(F)c3)C2)C1

>  <pIC50>
7.42

$$$$
>  <COMPOUND STRING>
CCN1CC(N2CC(F)(C(=O)N(Cc3ccc(-c4nnc(C(F)F)o4)cn3)c3ccccc3)C2)C1

>  <pIC50>
7.40

$$$$
>  <COMPOUND STRING>
CCCCN1CCC(N2CC(F)(C(=O)N(Cc3ccc(-c4nnc(C(F)F)o4)cn3)c3cccc(F)c3)C2)CC1

>  <pIC50>
7.68

$$$$
>  <COMPOUND STRING>
O=C(N(Cc1ccc(-c2nnc(C(F)F)o2)cn1)c1ccccc1)C1(F)CN(CC2CCCCC2)C1

>  <pIC50>
7.11

$$$$
>  <COMPOUND STRING>
O=C(N(Cc1ccc(-c2nnc(C(F)F)o2)cn1)c1cccc(F)c1)C1(F)CN(C2CCSCC2)C1

>  <pIC50>
7.64

$$$$
>  <COMPOUND STRING>
CCCN1CC(N2CC(F)(C(=O)N(Cc3ccc(-c4nnc(C(F)F)o4)cn3)c3ccccc3)C2)C1

>  <pIC50>
7.33

$$$$
>  <COMPOUND STRING>
CCN1CCC(F)(C(=O)N(Cc2ccc(-c3nnc(C(F)F)o3)cc2F)c2ccccc2)CC1

>  <pIC50>
6.69

$$$$
